Literature compilation of IC50 measurements on UniProt:Q99685.
quantity.measured: IC50 (nM)

{"compound": "O=C(c1ccc2c(c1)CCCN2)N1CC(N2CCN(C(=O)c3nccs3)CC2)C1", "lt.gt.eq": "=", "assay.result": 3750}
{"compound": "Cc1c(C(=O)N2CC(C3CCN(C(=O)c4ccc[nH]4)CC3)C2)sc2cc(C(F)(F)F)ccc12", "lt.gt.eq": "<", "assay.result": 5}
{"compound": "Cc1cccc(C)c1C#CC1CN(C(=O)N2CC[C@@H]3OCC(=O)N[C@@H]3C2)C1", "lt.gt.eq": "=", "assay.result": 4}
{"compound": "O=C1CSC2=C(CN(C(=O)N3CC(OCc4ccc(C(F)(F)F)cc4F)C3)CC2)N1", "lt.gt.eq": "=", "assay.result": 48.3}
{"compound": "CC(C)(C#N)Cn1ncc(-c2ccc(C(=O)N3CCN(c4nc5nc(Cl)ccc5o4)CC3)cc2)n1", "lt.gt.eq": "=", "assay.result": 34}
{"compound": "O=C(c1cscn1)N1CC[C@H](NC2CN(C(=O)c3cc4cc(-c5ccccc5)ccc4s3)C2)C1", "lt.gt.eq": "<", "assay.result": 5}
{"compound": "O=C(c1cscn1)N1CCN(C2CN(C(=O)c3ccc(-c4ccc(Cl)c(C(F)(F)F)c4)cc3Cl)C2)CC1", "lt.gt.eq": "=", "assay.result": 49.8}
{"compound": "Cc1ccc(C(F)(F)F)cc1COC1CN(C(=O)N2CC[C@@H]3OCC(=O)N[C@@H]3C2)C1", "lt.gt.eq": "=", "assay.result": 8}
{"compound": "O=C1CO[C@H]2CCN(C(=O)N3CC(c4cccc(OC(F)(F)F)c4)C3)C[C@H]2N1", "lt.gt.eq": "=", "assay.result": 44}
{"compound": "O=C1CO[C@H]2CCN(C(=O)N3CCC(COc4cccc(Cl)c4)C3)C[C@H]2N1 (stereo partly shown)", "lt.gt.eq": "=", "assay.result": 168}
{"compound": "COc1cccc(C(=O)N2CCN3C[C@@](O)(c4cc(Br)c(OC)s4)OC[C@@H]3C2)c1Cl", "lt.gt.eq": "=", "assay.result": 118}
{"compound": "O=C1N[C@H](CCC(=O)N2CC(c3ccc(Oc4ccccc4Cl)nc3)C2)CO1", "lt.gt.eq": "=", "assay.result": 10}
{"compound": "CCCN(CCC)S(=O)(=O)c1ccc(C(=O)N2CC(N3CCN(C(=O)c4nccs4)CC3)C2)cc1", "lt.gt.eq": "=", "assay.result": 9}
{"compound": "Cn1ncc2cc(C3CN(C(=O)N4CC[C@@H]5OCC(=O)N[C@@H]5C4)C3)ccc21", "lt.gt.eq": "=", "assay.result": 168}
{"compound": "O=C(c1ccccc1)N1CC[C@H](NC2CN(C(=O)c3sc4cc(Cl)ccc4c3C(F)(F)F)C2)C1", "lt.gt.eq": "=", "assay.result": 217}
{"compound": "O=C1CO[C@H]2CCN(C(=O)N3CC(c4ccc(-c5cnn(CCF)c5)cc4)C3)C[C@H]2N1", "lt.gt.eq": "=", "assay.result": 73.1}
